System: B16-F10
procedure_summary: Photodynamic cytotoxicity against mouse B16-F10 cells assessed as inhibition of cell viability incubated for 3 hrs followed by photo-irradiation at 54 J/cm2 measured after 24 hrs by CCK8 assay
Assay type: functional, cell-based
condition_notes: B16-F10, light or radiation study
measure: pIC50
The value called pIC50 is obtained by taking minus log10 of the concentration in mol/L.

Incoming: System B16-F10. Read-out pIC50. Item C=Cc1c(C)c2cc3nc(c(CC(=O)O)c4[nH]c(cc5nc(cc1[nH]2)C(C)=C5CC)c(C)c4C(=O)O)[C@@H](CCC(=O)O)[C@@H]3C . Report value.
Outgoing: 5.64

Incoming: System B16-F10. Read-out pIC50. Item COc1ccc2c(c1)CCc1c(-c3ccccc3)c3n(c1-2)[B-](F)(F)[N+]1=C(c2ccc(OCC(=O)NCCCNC(=O)c4c(F)c(F)c(F)c(F)c4F)cc2)C(I)=C(c2ccccc2)C1=N3 . Report value.
Outgoing: 7.13

Incoming: System B16-F10. Read-out pIC50. Item COc1ccc2c(c1)CCc1c(-c3ccccc3)c3n(c1-2)[B-](F)(F)[N+]1=C(c2ccc(OCC(=O)NCCCN4CCOCC4)cc2)C(I)=C(c2ccccc2)C1=N3 . Report value.
Outgoing: 8.14
